Every entry's value here was drawn from ChEMBL document CHEMBL2034909.

TARGET_OF_ASSAY: Thioredoxin reductase 1, cytoplasmic (Rattus norvegicus)
PROCEDURE_DETAILS: Inhibition of TrxR1 in rat liver homogenate preincubated for 5 mins measured by DNTB assay
Format: tissue-based
METRIC_NAME: inhibition

O=c1c2cc(F)ccc2[se]n1CCCn1[se]c2ccc(F)cc2c1=O : Dose-dependent effect
O=c1c2ccccc2[se]n1CCCCCCn1[se]c2ccccc2c1=O : Dose-dependent effect
O=c1c2ccccc2on1CCn1oc2ccccc2c1=O : Dose-dependent effect
Cc1ccc2[se]n(CCCCn3[se]c4ccc(C)cc4c3=O)c(=O)c2c1 : Dose-dependent effect
O=c1c2cc(Cl)ccc2[se]n1CCn1[se]c2ccc(Cl)cc2c1=O : Dose-dependent effect
O=c1c2cc(F)ccc2[se]n1CCn1[se]c2ccc(F)cc2c1=O : Dose-dependent effect

----------
TARGET_OF_ASSAY: Thioredoxin reductase 1, cytoplasmic (Rattus norvegicus)
Sequence (O89049 whole entry): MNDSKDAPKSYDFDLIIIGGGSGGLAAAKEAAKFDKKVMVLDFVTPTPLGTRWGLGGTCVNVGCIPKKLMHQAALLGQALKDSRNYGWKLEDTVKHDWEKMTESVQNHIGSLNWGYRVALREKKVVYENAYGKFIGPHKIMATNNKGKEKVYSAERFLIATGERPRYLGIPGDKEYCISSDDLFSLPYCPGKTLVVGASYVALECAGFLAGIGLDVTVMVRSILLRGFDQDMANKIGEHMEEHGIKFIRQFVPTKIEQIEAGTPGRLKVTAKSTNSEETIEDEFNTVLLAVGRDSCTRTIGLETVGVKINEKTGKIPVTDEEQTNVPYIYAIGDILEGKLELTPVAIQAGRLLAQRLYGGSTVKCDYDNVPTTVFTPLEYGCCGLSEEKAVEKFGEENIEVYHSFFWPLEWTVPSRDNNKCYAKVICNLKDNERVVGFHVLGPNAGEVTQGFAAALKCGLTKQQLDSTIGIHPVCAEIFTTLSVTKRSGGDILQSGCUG
compounds and their reported IC50
METRIC_NAME: IC50 (µM)

O=c1c2ccc(F)cc2[se]n1CCn1[se]c2cc(F)ccc2c1=O : 0.82
O=c1c2ccccc2[se]n1CCCCCCCCn1[se]c2ccccc2c1=O : 4.49
O=c1c2cc(Cl)ccc2[se]n1CCn1[se]c2ccc(Cl)cc2c1=O : 1.31
O=c1c2cc(Cl)ccc2[se]n1CCCCCn1[se]c2ccc(Cl)cc2c1=O : 1.8
O=c1c2ccccc2[se]n1CCCn1[se]c2ccccc2c1=O : 0.78
O=c1c2cc(F)ccc2[se]n1CCn1[se]c2ccc(F)cc2c1=O : 0.28
O=c1c2cc(Br)ccc2[se]n1CCCCCn1[se]c2ccc(Br)cc2c1=O : 1.59
Cc1ccc2[se]n(CCCCCn3[se]c4ccc(C)cc4c3=O)c(=O)c2c1 : 3.16
O=c1c2ccccc2[se]n1CCCCn1[se]c2ccccc2c1=O : 1.03
COc1ccc2[se]n(CCn3[se]c4ccc(OC)cc4c3=O)c(=O)c2c1 : 0.13
O=c1c2ccc(Cl)cc2[se]n1CCn1[se]c2cc(Cl)ccc2c1=O : 2.87
O=c1c2cc(F)ccc2[se]n1CCCCCn1[se]c2ccc(F)cc2c1=O : 3.87
Cc1ccc2[se]n(CCn3[se]c4ccc(C)cc4c3=O)c(=O)c2c1 : 1.26
O=c1c2ccccc2[se]n1CCCCCn1[se]c2ccccc2c1=O : 1.95
O=c1c2cc(F)ccc2[se]n1CCCCn1[se]c2ccc(F)cc2c1=O : 1.64
Cc1ccc2[se]n(CCCCn3[se]c4ccc(C)cc4c3=O)c(=O)c2c1 : 2.38
O=c1c2ccccc2[se]n1C1CCCCC1n1[se]c2ccccc2c1=O (configuration not stated) : 12.8
O=c1c2ccccc2[se]n1-c1ccc(-n2[se]c3ccccc3c2=O)cc1 : 34.3
O=c1c2ccccc2[se]n1Cc1ccc(-n2[se]c3ccccc3c2=O)cc1 : 47.7
CC(=O)Oc1ccc2[se]n(CCn3[se]c4ccc(OC(C)=O)cc4c3=O)c(=O)c2c1 : 22.6
O=c1c2ccccc2sn1CCn1sc2ccccc2c1=O : 48.1
